# Test system: PPARg DBDmut IVT, anti-PPARg (DBD mutation: PPARg1 K132A/R137A, NR concentration 270 nM)
# measurement protocol: PBM binding z-score (relative to random genomic background probes); higher = stronger binding; sequences stand for … in GC…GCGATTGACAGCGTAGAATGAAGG
The label depends only on PBM binding z-score: YES if it is at least 0.2, NO if it is smaller.

[
  {
    "ordered residues": "CGTCCAAGGTCAGCAGGTCACTGAAAGCGACGTG",
    "label class": "NO"
  },
  {
    "ordered residues": "CCTAGTTGGCCAAGGTCACACACGCTATAGGTAC",
    "label class": "NO"
  },
  {
    "ordered residues": "AGAATGAGGTTACCAAAGATCAGTGAAACGCTTG",
    "label class": "YES"
  },
  {
    "ordered residues": "ATACCAAGGTTATCGTGAGGTCGTTGATACTAAC",
    "label class": "YES"
  },
  {
    "ordered residues": "TCTTATAGATCAATAGAGGTTAAGAAAGTGCGCT",
    "label class": "YES"
  },
  {
    "ordered residues": "CGTCCAAGGTCAATGCGAGGTCAGTGAAAGCATT",
    "label class": "NO"
  },
  {
    "ordered residues": "CAAAATAGGTCAAGGTCAAAGTCGGTTTGTGCCA",
    "label class": "YES"
  },
  {
    "ordered residues": "CAGCCTAGGTGAGGGCCAGTATAGGAGGAACGTT",
    "label class": "NO"
  },
  {
    "ordered residues": "CCTTACCGGTCAAGGTTATAGCACGGGTGGTACG",
    "label class": "NO"
  },
  {
    "ordered residues": "CGAACTAGGTCAAAGGACAGTTAAAGGCGACGTA",
    "label class": "YES"
  },
  {
    "ordered residues": "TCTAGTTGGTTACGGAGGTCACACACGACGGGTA",
    "label class": "YES"
  },
  {
    "ordered residues": "CGTCAACGTTCAACTAAGGTAACGTAAAGCACGC",
    "label class": "NO"
  },
  {
    "ordered residues": "TTACCAAGGTGAAAGGTCATTGATGCACGCCTTG",
    "label class": "YES"
  },
  {
    "ordered residues": "TCTTGTAGGTCAAAGGTTAAGAAAGCCGAAGCCT",
    "label class": "YES"
  },
  {
    "ordered residues": "AGTCATAGTTCACTAGGTAACGTAAGATTCAGCT",
    "label class": "YES"
  },
  {
    "ordered residues": "ATCGAACGGTCGAGGTGAGTATAGAGAAAGGGAA",
    "label class": "NO"
  },
  {
    "ordered residues": "CCTTACGGGTCACTCTAGGTTATAGCATCGGAGT",
    "label class": "NO"
  },
  {
    "ordered residues": "CGAACTAGGTCAAAGGACGGTGAAAGGCGACGTA",
    "label class": "YES"
  },
  {
    "ordered residues": "ATCTCTAGGTCAAAGTTCAGTGAATCCCGAGGAT",
    "label class": "YES"
  },
  {
    "ordered residues": "CAAACTAGGTCACCAGGACAGTGAAGAGGTTGGA",
    "label class": "YES"
  },
  {
    "ordered residues": "CCTCGGAGGACAACAGGAGGTCAAAGCTGCCAGA",
    "label class": "NO"
  },
  {
    "ordered residues": "CCTTACGGGTCACTCCATGTTATAGCATCGGAGT",
    "label class": "YES"
  },
  {
    "ordered residues": "GCTGCAAGGTCAACTGATGGTCAGCTAAAGCTCG",
    "label class": "NO"
  },
  {
    "ordered residues": "ATCGAAAGGTCGCAGGTGAGTATACCCACCCGAA",
    "label class": "YES"
  },
  {
    "ordered residues": "TAGCCTAGGTCATTCAGGGGCTAGTATAGAAAGC",
    "label class": "YES"
  },
  {
    "ordered residues": "ATATGTAGGTTACATCCGAGTCATTCAGGCTATG",
    "label class": "YES"
  },
  {
    "ordered residues": "ATATGTATGTTAGGGTCATTCAGAAAGTAGGGAA",
    "label class": "YES"
  },
  {
    "ordered residues": "CGAACTAGGTCAAAGGACAGAGAAAGGCGACGTA",
    "label class": "YES"
  },
  {
    "ordered residues": "CGAACGAGGTCAGAACAGGACAGTGAAGGATGAT",
    "label class": "YES"
  },
  {
    "ordered residues": "CCTTACGGGCCACGAGGTTATAGCACGACGAGCG",
    "label class": "NO"
  },
  {
    "ordered residues": "TCTGCTGGGTCAACGATGGTCAGCTAATCTGCTA",
    "label class": "YES"
  },
  {
    "ordered residues": "GATACAGGGTCAGCTTGAGGCCAGAGTATGGAAA",
    "label class": "NO"
  },
  {
    "ordered residues": "CGAACTAGGTCACCAAGACAGTGAAGAGGTTGGA",
    "label class": "YES"
  },
  {
    "ordered residues": "CCTACTGGGCCATTCAGAGGTCATTGATCATATG",
    "label class": "YES"
  },
  {
    "ordered residues": "AGATGTAGGTTAGGGTCATTCAGAAAGTAGGGAA",
    "label class": "YES"
  },
  {
    "ordered residues": "TTACCAAGGTGAAAGGTCGTTGAGGCACGCCTTG",
    "label class": "YES"
  },
  {
    "ordered residues": "TAGCCTAGGTCATTCAGGGGCCAGAATAGAAAGC",
    "label class": "YES"
  },
  {
    "ordered residues": "CGAACTAGGTCACCAGGATAGTGAAGAGGTTGGA",
    "label class": "YES"
  }
]

###

# Test system: RARg homodimer (NR concentration 270 nM)
# measurement protocol: PBM binding z-score (relative to random genomic background probes); higher = stronger binding; sequences stand for … in GC…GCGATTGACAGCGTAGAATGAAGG
The label depends only on PBM binding z-score: TRUE if it is at least 4, FALSE if it is smaller.

[
  {
    "ordered residues": "TGGCCTAGGTCATGGGCCAGTATACCACGCGAAC",
    "label class": "TRUE"
  },
  {
    "ordered residues": "GCTTACGGGTCAAAGGTTATAGTATGAATAGAAT",
    "label class": "TRUE"
  },
  {
    "ordered residues": "TCGAGTAGGTTACGGGGGCGTTCAGGGATGAAGA",
    "label class": "FALSE"
  },
  {
    "ordered residues": "CCTTACGGGTCTAGGTTATAGCACGGGTGGTACG",
    "label class": "FALSE"
  },
  {
    "ordered residues": "GATACAGGGTCAGCTAGAGGGCAGAGTATGGAAA",
    "label class": "TRUE"
  },
  {
    "ordered residues": "CTAGGTAGGTTAAGGGGGTCATTCAGTTTGAAAG",
    "label class": "FALSE"
  },
  {
    "ordered residues": "CGTCAAAGTTCAACTAAGGTAACTTAAAGCACGC",
    "label class": "TRUE"
  }
]

###

# Test system: RARg homodimer (NR concentration 270 nM)
# measurement protocol: PBM binding z-score (relative to random genomic background probes); higher = stronger binding; sequences stand for … in GC…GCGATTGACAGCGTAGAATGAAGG
// reported PBM binding z-score for each item listed
property name: PBM binding z-score

[
  {
    "ordered residues": "TCGAGTAGGTTACGGGGACATTCAGGGATGAAGA",
    "recorded value": 1.01
  },
  {
    "ordered residues": "TGAATGAGGTCAAAGATCAGGGAACGTGGCGTCG",
    "recorded value": 6.16
  },
  {
    "ordered residues": "CGGACTGGGGCAAAGGTTACCATACTCAGTACGA",
    "recorded value": 1.9
  },
  {
    "ordered residues": "AATACAGGGTGATCGTAGGCCAGAGTACGCACAG",
    "recorded value": 0.556
  },
  {
    "ordered residues": "CGAACTAGGTCAACGACAGTGAATCTCCGCACGC",
    "recorded value": 4.2
  },
  {
    "ordered residues": "ATCTAAAGGTCGAAGGTGAGTATACCCACCCGAA",
    "recorded value": 3.66
  },
  {
    "ordered residues": "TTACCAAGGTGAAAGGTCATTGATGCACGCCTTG",
    "recorded value": 5.06
  },
  {
    "ordered residues": "CTATGTAGGTTAACGGGGTCATTCAGTTTGAAAG",
    "recorded value": 3.74
  },
  {
    "ordered residues": "AGTCAAAGTTCATCTTGGTAACGTAAGATATGCT",
    "recorded value": 5.84
  },
  {
    "ordered residues": "CGAACTAGGTCAACAGGACAGTGAAGAGGTTGGA",
    "recorded value": 5.29
  }
]
